- Test system: MCC-26
- assayExplanation: qHTS assay to identify novel small-molecules to repurpose for Merkel cell carcinoma treatment (AID 1296009); further: nearly all actives have a fitted effect of over 60% in size; further: potency means the concentration at half of the fitted maximal effect
- conditionSet: MCC and control cell lines, CellTiter-Glo viability, 72 h; series mostly up to 46 µM
- Text: MCC is a rare and aggressive neuroendocrine skin cancer with limited treatment options. Approximately 80% of MCCs have the Merkel cell polyomavirus (MCPyV) DNA integrated into the host genome (virus-positive: VP-MCC) and viral oncogenes drive oncogenesis. The remaining MCCs are virus-negative (VN-MCC) and are caused by UV mutagenesis. […] Using cell viability as a readout (CellTiter-Glo assay) we found both overlapping and distinct drugs that can be repurposed for the treatment of VP-MCC and VN-MCC. […]
Records with an inconclusive call do not appear. The source made the active and inactive calls. The call rests on the fitted dose curve; in most records, active means well fitted inhibition curve with a large enough effect; inconclusive means small, poorly fitted or top-dose-only effect; inactive means flat fitted curve, though single readings scatter.

{"compound": "COCCOCCO", "Potency": "inactive"}
{"compound": "CCO/N=C(\\CC)C1=C(O)CC(c2c(C)cc(C)cc2C)CC1=O (stereo not given)", "Potency": "inactive"}
{"compound": "CC1=C(C(=O)O)N2C(=O)[C@@H](N)[C@H]2SC1", "Potency": "inactive"}
{"compound": "C[C@]12Cc3cn[nH]c3C[C@@H]1CC[C@@H]1[C@H]2CC[C@@]2(C)[C@H]1CC[C@]2(C)O", "Potency": "inactive"}
{"compound": "C[C@]12COC(=O)C[C@@H]1CC[C@@H]1[C@H]2CC[C@@]2(C)[C@H]1CC[C@]2(C)O", "Potency": "inactive"}
{"compound": "CC(=O)[O][Hg][c]1ccccc1", "Potency": "2.66 µM (active)"}
{"compound": "C[C@H]([C@H](O)CCC(C)(C)O)[C@H]1CC[C@@]2(O)C3=CC(=O)[C@@H]4C[C@@H](O)[C@@H](O)C[C@]4(C)[C@@H]3CC[C@]12C", "Potency": "inactive"}
{"compound": "Cc1ccccc1-n1c(Cn2cnc3c(N)ncnc32)nc2cccc(C)c2c1=O", "Potency": "6.62 µM (active)"}
{"compound": "C[C@](O)(COc1ccc(C#N)cc1)C(=O)Nc1ccc(C#N)c(C(F)(F)F)c1", "Potency": "inactive"}
{"compound": "O=C1CCC[C@@H]2[C@H]3CCCN4CCC[C@@H](CN12)[C@@H]34", "Potency": "inactive"}
